B1: PTPN9 (parent)
chain: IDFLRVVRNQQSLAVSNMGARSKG

variants of: B1; assay: protein stability index of a GFP-peptide fusion (GPS, HEK-293T) (PSI 1-6); higher = more stable; conditions: c terminus: a fixed tail appended;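 note: lentivirally expressed fusions sorted by FACS into six bins by GFP to DsRed ratio, PSI derived from sequencing read proportions per bin multiplied by bin number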
endpoint: protein stability index

mutantCode | val
G19E | 2.91
G19W | 2.66
V15N | 2.86
S12D | 2.75
S12A | 2.04
G24S | 2.28
Q10G | 3.19
S16G | 2.35
Q10I | 1.95
K23I | 1.72
S16K | 2.59

Source of measurements: the supplement of paper PMC10567573
